Test system: Total ATXN3 (tATXN3) protein
Assay: Endogenous Total ATXN3 (tATXN3) Protein Assay (MSD immunoassay of cell lysates)
Type: cell-based
Settings: average IC50, total ATXN3 protein in cell lysate after 48 h with compound (Table 1)

compound: N[C@@H]1CCCC[C@H]1c1sc2c(NCc3ccccc3)cc(Cl)nc2c1Cl [Compound 368]
IC50: 30 to 300 nM
--
compound: N[C@@H]1COCC[C@H]1c1sc2c(NCc3cccs3)cc(Cl)nc2c1Br [Compound 140]
IC50: 300 to 1000 nM
--
compound: N[C@H]1COCC[C@@H]1c1sc2c(NCc3nccs3)cc(Cl)nc2c1Cl [Compound 337]
IC50: 30 to 300 nM
--
compound: CN(Cc1cccs1)c1cc(Cl)nc2c(C#CCCCO)c([C@@H]3CC=CC[C@H]3N)sc12 [Compound 451]
IC50: 30 to 300 nM
--
compound: N[C@@H]1CC=CC[C@H]1c1sc2c(NCc3ccsc3)cc(Cl)nc2c1Br [Compound 415]
IC50: 300 to 1000 nM
--
compound: N[C@H]1CCCC[C@@H]1c1c(I)c2nc(Cl)nc(NCc3ccco3)c2n1C(F)F [Compound 304]
IC50: 30 to 300 nM
--
compound: N[C@H]1CCCO[C@@H]1c1c(Br)c2nc(Cl)cc(NCc3ccco3)c2n1C(F)F [Compound 270]
IC50: 30 to 300 nM
--
compound: N[C@@H]1CCCO[C@H]1c1sc2c(NCc3ccco3)nc(Cl)nc2c1C#CCO.N[C@H]1CCCO[C@@H]1c1sc2c(NCc3ccco3)nc(Cl)nc2c1C#CCO (mixture of isomers) [Compound 255]
IC50: 30 to 300 nM
